- System tested: GPR139 (Homo sapiens, UniProt Q6DWJ6)
- Sequence (Q6DWJ6 whole entry): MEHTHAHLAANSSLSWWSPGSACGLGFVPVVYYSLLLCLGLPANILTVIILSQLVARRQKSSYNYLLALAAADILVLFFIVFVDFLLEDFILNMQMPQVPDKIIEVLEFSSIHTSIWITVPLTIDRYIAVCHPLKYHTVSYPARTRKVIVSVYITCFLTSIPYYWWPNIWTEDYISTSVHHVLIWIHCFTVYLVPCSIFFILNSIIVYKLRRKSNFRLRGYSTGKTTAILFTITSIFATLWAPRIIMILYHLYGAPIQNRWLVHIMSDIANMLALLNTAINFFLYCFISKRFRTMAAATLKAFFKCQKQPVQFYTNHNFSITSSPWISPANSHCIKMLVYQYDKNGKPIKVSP
- Measurement protocol: GPR139 Agonist titration / agonist counterscreen assay (calcium detection, HEK-GPR139 cells)
- Type: cell-based
- Parameters: expressed in transfected cells; host or cells: HEK Aequorin cells, Maxcyte transient transfection
- Conditions used: GPR139 Agonist Activity; fitted dose-response curve
Answer No if Hill Slope is under 0.7, and Yes if it is 0.7 or more.

# Compound, Cat
measured = [
    ("O=C(Cn1ncc2c1-c1ccccc1OC2)Nc1ccccn1", "Yes"),
    ("CSc1cccc(NC(=O)C2C3C=CC4(O3)C2C(=O)N(C(C)c2ccccc2)C4C(=O)NC2CCCCC2)c1 (centres unmarked)", "No"),
    ("Cc1cccc(NC(=S)NNC(=O)CSCc2cccc3ccccc23)c1", "Yes"),
    ("Cc1ccc(CCNC(=O)CN2CCN(Cc3ccccc3Cl)C2=O)cc1", "Yes"),
    ("Nc1ccc(C(=O)OCC(=O)NC2CCCc3ccccc32)cc1[N+](=O)[O-] (centres unmarked)", "Yes"),
    ("CSc1cccc(NC(=O)C2C3C=CC4(O3)C2C(=O)N(C(C)c2ccccc2)C4C(=O)NC2CCCC(C)C2C)c1 (centres unmarked)", "No"),
    ("CC(NC(=O)Cn1ncc2c(Cl)cccc21)c1ccc2c(c1)OCCO2 (centres unmarked)", "No"),
    ("Cc1ccc(OCC(=O)NNC(=O)CN(C)S(=O)(=O)c2ccc(C)cc2)cc1", "No"),
]

Data provenance is patent US20250099420A1.
